Tested on: SW-480 (human colon cancer cells)
Assay: MTT inhibition of tumor cell growth, SW-480
Assay type: cell-based
Details: Homo sapiens, SW480, 48 h, Table 2, derivatives having potential Michael reaction acceptor, read-out: IC50 SW-480
pIC50: −log10 of the molar value.
measurement name: pIC50

compound | measurement name | result
C=C1C(=O)C23CC[C@H]1CC2[C@]1(COC(C)=O)CCC[C@@](C)(COC(C)=O)C1[C@H](COS(C)(=O)=O)C3=O (stereo partly drawn) | pIC50 | 4.81
C=C1C(=O)C23CC[C@H]1CC2[C@]1(COC(C)=O)CCC[C@@](C)(COC(C)=O)C1CC3=O (stereo partly drawn) | pIC50 | 5.43
C=C1C(=O)[C@]23CC[C@H]1CC2[C@@]12CCC[C@@](C)(COC1=O)C2[C@H](SC)C3=O (stereo partly drawn) | pIC50 | 5.43
C=C1C(=O)C23CC[C@H]1CC2[C@]1(COC(C)=O)CCC[C@@](C)(COC(C)=O)C1[C@H](CN1CCOCC1)C3=O (stereo partly drawn) | pIC50 | 5.18
C=C1C(=O)[C@]23CC[C@H]1CC2[C@@]12CCC[C@@](C)(COC1=O)C2[C@H](CN1CCOCC1)C3=O (stereo partly drawn) | pIC50 | 5.11
C=C1C(=O)[C@]23CC[C@H]1CC2[C@@]12CCC[C@@](C)(COC1)C2[C@H](COS(C)(=O)=O)C3=O (stereo partly drawn) | pIC50 | 5.80
C=C1C(=O)[C@@]23CC[C@@H](CC2[C@@]24CCC[C@@](C)(COC2=O)C14)C(=C)[C@@H]3O (stereo partly drawn) | pIC50 | 4.94
C=C1C(=O)[C@]23CC[C@H]1CC2[C@@]12CCC[C@@](C)(COC1=O)C2C(CN(C)C)C3=O (stereo partly drawn) | pIC50 | 5.99
C=C1C(=O)[C@]23CC[C@H]1CC2[C@@]12CCC[C@@](C)(COC1)C2CC3=O (stereo partly drawn) | pIC50 | 5.63
C=C1C(=O)[C@@]23CC[C@@H](CC2[C@@]24CCC[C@@](C)(COC2)C14)C(=C)C3=O (stereo partly drawn) | pIC50 | 5.27
C=C1C(=O)C23CC[C@H]1CC2[C@]1(COC(C)=O)CCC[C@@](C)(COC(C)=O)C1[C@H](CO)C3=O (stereo partly drawn) | pIC50 | 5.40
C=C1C(=O)[C@]23CC[C@H]1CC2[C@@]12CCC[C@@](C)(COC1=O)C2[C@H](Cl)C3=O (stereo partly drawn) | pIC50 | 5.62
C=C1C(=O)[C@]23CC[C@H]1CC2[C@@]12CCC[C@@](C)(COC1=O)C2C[C@H]3O (stereo partly drawn) | pIC50 | 5.45
C[C@]12CCC[C@@]3(C(=O)OC1)C1C[C@@H]4CCC1(C(=O)[C@H]4CN1CCOCC1)[C@H](O)CC23 (stereo partly drawn) | pIC50 | 5.10
C=C1C(=O)[C@]23CC[C@H]1CC2[C@@]12CCC[C@@](C)(COC1=O)C2[C@H](Br)C3=O (stereo partly drawn) | pIC50 | 5.92
